# protocol.details: yeast display, Sf9 membrane polyspecificity reagent, FACS + sequencing; frameworks hold sequencing errors
property: polyreactivity (PSR sort gate)

The cases that follow already have their polyreactivity (PSR sort gate) on record.
QVQLVESGGGLVQAGGRLRLICAASGSTFYYNALGWYRQAPGKERELVAGISRSGGSTYYADSVKGRFTISRDNAKNTVYLQMNSLKPEDTAVYYCAAKSYAYRWYDYWGQGTQVTVSS : high polyreactivity
QVQLVESGGGLVQAGGSLRLSCAASGSIFSQNAIGWYRQAPGKEMELVAAISSSGTRTYYADSVKGRFTISRDHAKNTVYLQMNSLKPEDTAVYYCNKVLFRPRFFVRSDYWGQGTQVSVSS : high polyreactivity
QVQLVESGGGLVQAGGSLRLSCAASARTFSRSALGWARQAPGKERELVAAISWSGGSTYYADSVKGRFTISRDKAKNSVYLQMNSLNPEDTAVYYCAAYSRWLPAYDYWGQGTQVTVSS : high polyreactivity
QGQLVESGGGLDQAGGSLRLSCAASGSTFPVYAMGLYRQAPGKDRELVAAITSGVSTNYADSVKGRFTISRDNAKNTVYVQKNSMKPEDTAVYYCAKEFGLLPIRDYYWGQGTQVTESS : low polyreactivity
QVQLVESGGGLVQAGGSLRLSCAASGSIFRYYAMGWYRQAPGKERELVATISWSGGGTYYADSVKGRFTISRDTAKNTVYLLMNSLKPDVTGVYYCAAVGTVPRKQRYHSYIDYDYWGQGTQVTVSS : low polyreactivity

Lookup: Request the reported polyreactivity (PSR sort gate) associated with QVQLVESGGGLVQAGGSLRLSCAASGRTFSINAMGWYRQAPGKERELVASISSRGTRTNYADSVKGRFTISRDNAKNTVYLQMNSLKPEDTAVYYCAADRYYPYYSAWREYEYWGQGTQVTVSS
Found: high polyreactivity

Lookup: Request the reported polyreactivity (PSR sort gate) associated with QVQLVESGGGLVQAGGSLRLSCAASGIIFAFSAMGWYRQAPGKERELVAGITSGGDTYYADSVKGRFTISRDNAKNTVYLQMNSLKPEDTAVYYCAADVQYPNRAGWLYWYATNFDYWGQGTQVTVSS
Found: high polyreactivity

Lookup: Request the reported polyreactivity (PSR sort gate) associated with QVQLVESGGGLVQAGGSLRLSCAASGRIFYVYGMGWYRQAPGKERELVGAISKRGDNTYYADSVKGRFTISRDNAKNTVYLQMNSLNPEDTAVYYCNVKRYGGRSDYWGQGTQVTVSS
Found: high polyreactivity

###

# protocol.details: yeast display, Sf9 membrane polyspecificity reagent, FACS + sequencing; frameworks hold sequencing errors
property: polyreactivity (PSR sort gate)

The cases that follow already have their polyreactivity (PSR sort gate) on record.
QVQLVESGGGLVQAGGSLRLSCAASGIISTYYVMGWYRQAPGKERELVAAITGGDTSTYYADSVKGRFTISRDNAKKTVYLQMNSLKPEDTADYYCAKEYYYARGARYDYWGQGTQVTVSS : low polyreactivity
QVQLVESGGGLVQAGGSLRLSCAASGFIFAFYARGWYRQAPGKERELVASISRRSGSTYYADSVKGRFTISRDNAKNNVYLQMNSLKPEDTAVYYCSADRPPWETYGYDYWGQGTQVTVSS : low polyreactivity
QVQHVESGGGLVQAGGSLRLSCAASGSIFNYYDMGWYRQAPGKEREFVARITIGGSSTNYADSVKGRFTISRDNAKNTVYLQMNSLTPEDTAVYYCAAAQYGIFFSQMDYWGQGTQVTVSS : low polyreactivity
QVQLVESGGGLVQAGGSLRLSCAASGSTFYSNPMGWSRQAPGKESEFVAAISWSGGSTYYADSVKGRFTISRDNAKNSVYFQMYSLKPQDTAVYSCAKKPYYYAYGGYGYWGQGNQVTVSS : high polyreactivity

Switching to the query record.
Lookup: Request the reported polyreactivity (PSR sort gate) associated with QVQLVESGGGLVQAGGSLRLSCAASGSTLRYYAMGWYRQAPGKETEFVAAITASGVTTYYADSVKGRFTISRDNAKNTVYLQMNSLKPEDTAVYYCAARLYYNYRDRYNYWGQGTQVTVSS
Found: high polyreactivity
